- SYSTEM: T1, 4H3697-AA
- T1 chain: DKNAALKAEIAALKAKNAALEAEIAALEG
- TEST NAME: two-hybrid library CCmax;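 further: natural log of median RNA to DNA barcode read ratio; higher means stronger binding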
- CONDITION CONTEXT: mean of both orientations
PARAMETER MEASURED: interaction score

Problem: Quick one: give measured interaction score for DKIAALEAENAALEAENAALEAKIAALKG [4H2198-AA]
Result: -1.16

(a) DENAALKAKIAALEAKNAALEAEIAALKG [4H1842-AA]
(b) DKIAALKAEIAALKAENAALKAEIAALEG [4H2649-AA]
Problem: I'm curious whether a or b has the smaller interaction score number. Which is it? Mark your selection by writing its label.
Result: b
(b: -1.81, a: -1.01)
